- protocol: Remote loading efficiency of small molecules into liposomes (PD-10 size exclusion, HPLC)
- Assay type: physicochemical
- test-context: formulation F1, HEPES, drug/lipid ratio 0.10, 1 h
# binarize Remote loading efficiency 1 h (%): threshold 90% inclusive, high side yes, low side no

Prompt: Reported Remote loading efficiency 1 h (%) reaches at least 90% for CCOCc1nc2c(N)nc3ccccc3c2n1CCNC(=O)[C@@H](N)C(C)C ?
Completion: yes

Prompt: Reported Remote loading efficiency 1 h (%) reaches at least 90% for CCOCc1nc2c(N)nc3ccccc3c2n1CCN ?
Completion: yes

Prompt: Reported Remote loading efficiency 1 h (%) reaches at least 90% for CCOCc1nc2c(N)nc3ccccc3c2n1CCNC(=O)[C@H](C)N ?
Completion: yes

Prompt: Reported Remote loading efficiency 1 h (%) reaches at least 90% for CCOCc1nc2c(N)nc3ccccc3c2n1CCNC(=O)CN ?
Completion: no
